Target: transferrin receptor (TfR, CD71), recombinant from pAcGP67A-TfR (Homo sapiens, UniProt P02786 P02786:121-760)
Sequence (P02786 121-760, one chain of several): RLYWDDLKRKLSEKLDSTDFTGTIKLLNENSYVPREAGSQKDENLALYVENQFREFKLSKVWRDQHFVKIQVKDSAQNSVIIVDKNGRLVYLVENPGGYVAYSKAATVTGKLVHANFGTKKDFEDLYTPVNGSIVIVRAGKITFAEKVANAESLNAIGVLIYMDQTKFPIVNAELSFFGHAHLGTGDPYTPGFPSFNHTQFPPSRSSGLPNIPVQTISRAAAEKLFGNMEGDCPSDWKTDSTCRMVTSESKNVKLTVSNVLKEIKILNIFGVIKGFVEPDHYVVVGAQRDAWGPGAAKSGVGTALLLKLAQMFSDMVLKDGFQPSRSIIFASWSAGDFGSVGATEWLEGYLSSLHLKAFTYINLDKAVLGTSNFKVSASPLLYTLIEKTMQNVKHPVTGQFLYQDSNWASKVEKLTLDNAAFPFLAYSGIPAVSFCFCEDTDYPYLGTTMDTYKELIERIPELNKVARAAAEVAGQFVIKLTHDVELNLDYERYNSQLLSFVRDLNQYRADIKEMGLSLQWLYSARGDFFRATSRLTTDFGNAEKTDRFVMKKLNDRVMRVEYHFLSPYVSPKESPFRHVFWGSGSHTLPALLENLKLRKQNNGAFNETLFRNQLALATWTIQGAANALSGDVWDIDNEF
Test: filter; DPBS with Mg2+ and Ca2+, room temperature, 30 min
Conditions: tags: His-tag; expressed in Sf9 insect cells, plasmid pAcGP67A-TfR (Addgene); chain copies: 2 inferred; label: 32P (filter), AF488 or Atto647N (cells); stem with 12-nt asymmetric bulge, C-rich bulge, GNRA tetraloop
pKd: −log10 of the molar value.
ASSAY_READOUT: pKd

GGGGGAUCAAUCCAAGGGACCCGGAAACGCUCCCUUACACCCC (ssRNA, 2'-F pyrimidines; 3' idT; 5' thiol C6) [c2.min] = 6.99
